Ref: patent US20230233569A1

# TEST TARGET: KRAS WT (Homo sapiens, UniProt P01116+P62937)
# Sequence (P01116 1-169 isoform P01116-2 limits assumed): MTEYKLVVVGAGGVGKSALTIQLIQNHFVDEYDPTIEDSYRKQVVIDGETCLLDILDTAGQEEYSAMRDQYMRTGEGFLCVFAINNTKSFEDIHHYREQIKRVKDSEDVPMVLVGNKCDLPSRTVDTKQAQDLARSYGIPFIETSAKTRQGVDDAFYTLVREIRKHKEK
# Sequence (P62937 whole entry): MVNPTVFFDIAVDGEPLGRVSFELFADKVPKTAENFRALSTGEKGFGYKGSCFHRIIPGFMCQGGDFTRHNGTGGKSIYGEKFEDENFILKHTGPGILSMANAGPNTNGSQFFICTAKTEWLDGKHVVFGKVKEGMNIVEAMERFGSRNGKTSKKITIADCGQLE
# ASSAY METHOD TEXT: Ras-Raf disruption / FRET / MOA assay (BRAF RBD)
# Format: biochemical
# CONDITION DESCRIPTION: Ras-Raf disruption, with Cyclophilin A; read-out: KRAS WT FRET data IC50
RECORDED ENDPOINT: IC50

Consider the following illustrative entries.
CCn1c(-c2cccnc2[C@H](C)OC)c2c3cc(ccc31)-c1cc(O)cc(c1)C[C@H](NC(=O)[C@H](C(C)C)N1CCC3(CN(C(=O)[C@H]4CN4)C3)C1=O)C(=O)N1CCC[C@H](N1)C(=O)OCC(C)(C)C2; 0.01 to 0.1 µM
CCn1c(-c2cccnc2[C@H](C)OC)c2c3cc(ccc31)-c1cc(O)cc(c1)C[C@H](NC(=O)[C@H](C(C)C)N(C)C(=O)[C@H]1CN1)C(=O)N1CCC[C@H](N1)C(=O)OCC(C)(C)C2; 0.01 to 0.1 µM
CCn1c(-c2cccnc2[C@H](C)OC)c2c3cc(ccc31)-c1cc(O)cc(c1)C[C@H](NC(=O)[C@H](C(C)C)N(C)C(=O)N1C[C@@H]3[C@H]1CCN3C(=O)[C@@H]1CN1)C(=O)N1CCC[C@H](N1)C(=O)OCC(C)(C)C2 (atropisomer, axis not shown); 0.1 to 1 µM
CCn1c(-c2cccnc2[C@H](C)OC)c2c3cc(ccc31)-c1csc(n1)C[C@H](NC(=O)[C@H](C(C)C)N(C)C(=O)N1CCCN(C(=O)[C@H]3CN3)CC1)C(=O)N1CCC[C@H](N1)C(=O)OCC(C)(C)C2 (atropisomer, axis not shown); 0.01 to 0.1 µM
CCn1c(-c2cccnc2[C@H](C)OC)c2c3cc(ccc31)-c1csc(n1)C[C@H](NC(=O)[C@H](C(C)C)N(C)C(=O)N1CCC(CN(C)C(=O)[C@H]3CN3)CC1)C(=O)N1CCC[C@H](N1)C(=O)OCC(C)(C)C2 (atropisomer, axis not shown); 0.01 to 0.1 µM

Please state IC50 for every molecule in the list that follows.
1. CCn1c(-c2cccnc2[C@H](C)OC)c2c3cc(ccc31)-c1cc(O)cc(c1)C[C@H](NC(=O)[C@H](C(C)C)N(C)C(=O)c1ncc(NC(=O)[C@@H]3CN3)n1C)C(=O)N1CCC[C@H](N1)C(=O)OCC(C)(C)C2
2. CCn1c(-c2cccnc2[C@H](C)OC)c2c3cc(ccc31)-c1cc(O)cc(c1)C[C@H](NC(=O)[C@H](C(C)C)N(C)C(=O)C1CCN(S(=O)(=O)[C@@H]3CN3C)CC1)C(=O)N1CCC[C@H](N1)C(=O)OCC(C)(C)C2 (single isomer, unassigned)
3. CCn1c(-c2cccnc2[C@H](C)OC)c2c3cc(ccc31)-c1cc(O)cc(c1)C[C@H](NC(=O)[C@H](C(C)C)N(C)C(=O)CC1CN(C(=O)[C@H]3CN3)C1)C(=O)N1CCC[C@H](N1)C(=O)OCC(C)(C)C2

Result string:
["0.01 to 0.1 µM", "0.1 to 1 µM", "0.1 to 1 µM"]
